target: Spodoptera litura GSTs; test: Inhibition of total GSTs enzyme of Spodoptera litura (CDNB method)
metric_name: IC50

QUERY: For the compound COc1ccccc1CC(=O)NNC(=O)c1cc(-c2ccccc2)nn1-c1ccccc1 , report IC50.
RESULT: > 100 µM

QUERY: For the compound O=C(CNc1ccccc1)NNC(=O)c1cc(-c2ccccc2)nn1-c1ccccc1 , report IC50.
RESULT: > 100 µM

QUERY: For the compound CC1(c2ccccc2)NC(=O)N(NC(=O)c2cc(-c3ccccc3)nn2-c2ccccc2)C1=O (centres unmarked) , report IC50.
RESULT: > 100 µM

QUERY: For the compound O=C(NNC(=O)c1cc(-c2ccccc2)nn1-c1ccccc1)c1cc[nH]c(=O)c1 , report IC50.
RESULT: 17.7 µM

QUERY: For the compound N#Cc1ccc(OCC(=O)NNC(=O)c2cc(-c3ccccc3)nn2-c2ccccc2)cc1 , report IC50.
RESULT: > 100 µM

====

biological target: PxGSTδ1 (Plutella xylostella); test: Inhibition of PxGSTδ1 recombinant protein; format: biochemical; settings: read-out: 100 μM Inhibition rate %
Sequence (D7URW9 entry or part of it): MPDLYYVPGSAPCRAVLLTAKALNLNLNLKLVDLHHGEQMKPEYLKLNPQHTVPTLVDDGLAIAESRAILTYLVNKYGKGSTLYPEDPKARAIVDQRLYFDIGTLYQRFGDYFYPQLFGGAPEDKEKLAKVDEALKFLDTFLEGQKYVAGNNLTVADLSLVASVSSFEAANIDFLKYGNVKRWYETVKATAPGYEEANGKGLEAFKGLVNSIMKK
metric_name: inhibition at 100 µM
Field note: include the unit after the figure.

QUERY: Provide inhibition at 100 µM, tested on PxGSTδ1 (Plutella xylostella), for CCOC(=O)NNC(=O)c1cc(-c2ccccc2)nn1-c1ccccc1 .
RESULT: 23.1%

QUERY: Provide inhibition at 100 µM, tested on PxGSTδ1 (Plutella xylostella), for N#Cc1ccccc1OCC(=O)NNC(=O)c1cc(-c2ccccc2)nn1-c1ccccc1 .
RESULT: 77.7%

QUERY: Provide inhibition at 100 µM, tested on PxGSTδ1 (Plutella xylostella), for O=C(NNC(=O)c1cc(-c2ccc(Cl)cc2)nn1-c1ccccc1)c1ccccn1 .
RESULT: 23%

QUERY: Provide inhibition at 100 µM, tested on PxGSTδ1 (Plutella xylostella), for O=C(NNC(=O)c1cc(-c2ccccc2)nn1-c1ccccc1)c1cccnc1O .
RESULT: 23.8%

QUERY: Provide inhibition at 100 µM, tested on PxGSTδ1 (Plutella xylostella), for O=C(NNC(=O)[C@@H]1COc2ccccc2O1)c1cc(-c2ccccc2)nn1-c1ccccc1 .
RESULT: 69.5%

QUERY: Provide inhibition at 100 µM, tested on PxGSTδ1 (Plutella xylostella), for COc1ccccc1CC(=O)NNC(=O)c1cc(-c2ccccc2)nn1-c1ccccc1 .
RESULT: 91%

QUERY: Provide inhibition at 100 µM, tested on PxGSTδ1 (Plutella xylostella), for O=C(NN1C(=O)NC2(CCCCC2)C1=O)c1cc(-c2ccccc2)nn1-c1ccccc1 .
RESULT: 12.2%

QUERY: Provide inhibition at 100 µM, tested on PxGSTδ1 (Plutella xylostella), for COc1cccc(C2(C)NC(=O)N(NC(=O)c3cc(-c4ccccc4)nn3-c3ccccc3)C2=O)c1 (stereo not drawn) .
RESULT: 2.22%

QUERY: Provide inhibition at 100 µM, tested on PxGSTδ1 (Plutella xylostella), for CC1CCC2(CC1)NC(=O)N(NC(=O)c1cc(-c3ccccc3)nn1-c1ccccc1)C2=O (stereo not drawn) .
RESULT: 5.35%

====

Tested on: Plutella xylostella GSTs
Assay: Inhibition of total GSTs enzyme of Plutella xylostella (CDNB method)
Type: biochemical
Conditions: 100 μM
Method: Experiment: About 50 mg of larvae/nymphs of nine major pests such as Plutella xylostella, Mythimna separata, Pyrausta nubilalis, Chilo suppressalis, Nilaparvata lugens, Spodoptera frugiperda, Helicoverpa armigera, Carposina sasakii, Spodoptera litura were taken, grounded in a mortar pre-cooled at −80° C., and then 1 mL of 100 mM sodium phosphate buffer (1 mM EDTA, pH 7.2) was added and fully homogenized. […] The protein concentrations of the above total enzymes were determined using the BCA method. […]
Task for the reader: assign each of the following compounds its reported 100 μM Inhibition rate %.
Give a bare numeral; the unit % is implied.

QUERY: For the compound COc1ccccc1OCC(=O)NNC(=O)c1cc(-c2ccccc2)nn1-c1ccccc1 , report 100 μM Inhibition rate %.
RESULT: 32.94

QUERY: For the compound CC1(CCc2ccccc2)NC(=O)N(NC(=O)c2cc(-c3ccccc3)nn2-c2ccccc2)C1=O (centres unmarked) , report 100 μM Inhibition rate %.
RESULT: 16.83

QUERY: For the compound O=C(CNc1ccccc1)NNC(=O)c1cc(-c2ccccc2)nn1-c1ccccc1 , report 100 μM Inhibition rate %.
RESULT: 25.47

QUERY: For the compound O=C(NNC(=O)c1cc(-c2ccccc2)nn1-c1ccccc1)c1ccccc1 , report 100 μM Inhibition rate %.
RESULT: 22.90

QUERY: For the compound CCCCCCSC[C@H](NC(=O)CC[C@H](N)C(=O)O)C(=O)NCC(=O)O [GTX, S-Hexylglutathione, reference compound] , report 100 μM Inhibition rate %.
RESULT: 73.72

QUERY: For the compound O=C(NNC(=O)c1cc(-c2ccccc2)nn1-c1ccccc1)c1cc[nH]c(=O)c1 , report 100 μM Inhibition rate %.
RESULT: 70.90

QUERY: For the compound COc1cc(C(=O)NNC(=O)c2cc(-c3ccccc3)nn2-c2ccccc2)cc(OC)c1OC , report 100 μM Inhibition rate %.
RESULT: −10.64

QUERY: For the compound N#Cc1ccccc1OCC(=O)NNC(=O)c1cc(-c2ccccc2)nn1-c1ccccc1 , report 100 μM Inhibition rate %.
RESULT: 26.35
